# System: conscious cynomolgus monkeys
# procedure-text: Cardiovascular side effects (blood pressure, heart rate) after i.v. administration
# Assay type: in vivo, cynomolgus monkey
# condition: i.v. 500 μg/kg, up to 6 hours; + with * = increase from base levels
# Excerpt: Cardiovascular measurements were made in a different group of monkeys using a BP 100S automated sphygmomanometer (Nippon Colin,. Japan).
result-type: Maximum % Decrease From Pretreatment Levels, Mean Arterial Blood Pressure

c1ccc2c(c1)CC[C@@H](Cc1c[nH]cn1)C2 [Example J-3] = +1.0 ± 2.1* %
c1nc(Cc2ccsc2)c[nH]1 [Example C-1, 4(5)-thiophen-3-ylmethyl-1H-imidazole] = +5 ± 8* %
c1nc(CC2CCc3sccc3C2)c[nH]1 (centres unmarked) [Example B-9a] = +10.8 ± 3.2* %
c1ccc2c(c1)CC[C@H](Cc1c[nH]cn1)C2 [Example J-2] = +0.6 ± 3.1* %
c1ccc2c(c1)CC(Cc1c[nH]cn1)CO2 (centres unmarked) [Example B-2d, 4(5)-chroman-3-ylmethyl-1H-imidazole] = +8.9 ± 3.4* %

* * *

# assay-target: rat α2B (RNG gene) receptor (Rattus norvegicus, UniProt P19328)
# Construct: expressed in transfected cells; host or cells: NIH-3T3 cells, calcium phosphate cotransfection
# Sequence (P19328 whole entry): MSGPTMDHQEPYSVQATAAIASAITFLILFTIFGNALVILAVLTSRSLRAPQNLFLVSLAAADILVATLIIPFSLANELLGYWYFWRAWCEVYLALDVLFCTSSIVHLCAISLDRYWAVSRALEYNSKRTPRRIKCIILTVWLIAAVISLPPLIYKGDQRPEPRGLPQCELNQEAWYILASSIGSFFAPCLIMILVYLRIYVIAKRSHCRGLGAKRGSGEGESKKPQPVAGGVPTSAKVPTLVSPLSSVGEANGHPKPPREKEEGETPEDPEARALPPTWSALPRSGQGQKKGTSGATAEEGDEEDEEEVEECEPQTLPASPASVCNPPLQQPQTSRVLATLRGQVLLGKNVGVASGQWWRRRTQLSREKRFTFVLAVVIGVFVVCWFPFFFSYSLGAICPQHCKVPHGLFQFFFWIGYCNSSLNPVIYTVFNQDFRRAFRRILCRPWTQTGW
# procedure-text: RSAT (Receptor Selection and Amplification Technology) assay, alpha 2B
# Type: cell-based
# condition: ratio of maximal effect to that of standard full agonist oxymetazoline
# Protocol: This preferential activity can be determined in a variety of functional assays such as Cyclic AMP Production, Shimizu et al, J. Neurochem. […] The assay measures a receptor-mediated loss of contact inhibition that results in selective proliferation of receptor-containing cells in a mixed population of confluent cells. The increase in cell number is assessed with an appropriate transfected marker gene such as b-galactosidase, the activity of which can be easily measured in a 96-well format. […]
Structures can show the parent of a compound that is named as a salt.
result-type: Intrinsic Activity Relative to Oxymetazoline, Alpha 2B

Cc1ccc(Cc2c[nH]cn2)o1 = 0.73
c1csc(Cc2c[nH]cn2)c1 = 1.3
c1cnc2c(c1)CC(Cc1c[nH]cn1)CC2 (stereo not shown) [Example Q-4, dihydrochloride] = 0.8
O=C1/C(=C/c2c[nH]cn2)Cc2ccccc21 = 0.3
